SYSTEM_NAME: Homeobox protein SIX1 (Homo sapiens) + Protein phosphatase EYA2 (Homo sapiens) (UniProt Q15475+O00167)
Sequence (O00167 whole entry, looked up): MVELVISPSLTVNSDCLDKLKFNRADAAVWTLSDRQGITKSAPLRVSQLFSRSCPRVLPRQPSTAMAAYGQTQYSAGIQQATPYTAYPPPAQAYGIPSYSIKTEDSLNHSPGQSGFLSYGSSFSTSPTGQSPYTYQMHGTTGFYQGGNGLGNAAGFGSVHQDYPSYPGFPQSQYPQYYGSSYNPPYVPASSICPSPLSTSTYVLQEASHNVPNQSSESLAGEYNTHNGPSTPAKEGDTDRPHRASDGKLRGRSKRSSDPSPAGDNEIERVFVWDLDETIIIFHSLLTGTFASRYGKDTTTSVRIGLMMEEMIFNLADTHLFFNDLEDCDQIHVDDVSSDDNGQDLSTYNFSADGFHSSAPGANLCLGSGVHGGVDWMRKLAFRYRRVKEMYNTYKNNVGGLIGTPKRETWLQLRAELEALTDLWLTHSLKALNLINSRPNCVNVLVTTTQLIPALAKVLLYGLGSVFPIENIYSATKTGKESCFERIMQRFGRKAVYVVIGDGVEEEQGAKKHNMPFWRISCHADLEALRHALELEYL
Sequence (Q15475 whole entry, looked up): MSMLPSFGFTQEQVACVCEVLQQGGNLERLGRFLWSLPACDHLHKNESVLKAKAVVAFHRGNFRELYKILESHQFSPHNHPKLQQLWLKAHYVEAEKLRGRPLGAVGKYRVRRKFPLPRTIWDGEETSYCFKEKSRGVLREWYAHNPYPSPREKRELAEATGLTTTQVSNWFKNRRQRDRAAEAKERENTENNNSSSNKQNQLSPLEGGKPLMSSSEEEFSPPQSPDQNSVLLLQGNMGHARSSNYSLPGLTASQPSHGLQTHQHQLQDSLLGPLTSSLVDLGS
ASSAY_DETAILS: qHTS Assay for Inhibitors of the Six1/Eya2 Interaction; also: % is scaled to controls: 0 for no effect and ±100 for the full control effect
SETTINGS: AlphaScreen GST-Six1/His-Eya2 binding, biochemical; active compounds read low
In all, about 360,000 compounds went through this assay and about 2,000 (0.56%) were called active. About 2% were inconclusive and are not listed. This is one part of a sample in which actives are shown more often than they occur.
The following molecules are listed with their measured activity change values.
QUANTITY: activity change (%)

1) Nc1ccc2nc3c(=O)[nH]c(=S)[nH]c3nc2c1 ... -79.3
2) CC(C)OC(=O)CC(=O)CC(O)c1cccc([N+](=O)[O-])c1 (stereo not given) ... -3.63
3) CCCCCCCCN1C(=O)[C@H](CC(=O)NCC23CC4CC(CC(C4)C2)C3)C[C@@]2(C(=O)OC)CCCCC=C12 ... -0.139
4) CC1(C(=O)NCc2ccccc2)CSCC(=O)N1CCCn1ccnc1 (stereo not given) ... -4.73
5) O=C(/C=C/[C@H]1O[C@@H](n2cnc3c(NC(=O)c4ccccc4)ncnc32)[C@H](O)[C@@H]1O)NCc1ccccc1 ... -0.266

---

SYSTEM_NAME: Homeobox protein SIX1 (Homo sapiens) + Protein phosphatase EYA2 (Homo sapiens) (UniProt Q15475+O00167)
ASSAY_DETAILS: qHTS Assay for Inhibitors of the Six1/Eya2 Interaction; also: % is scaled to controls: 0 for no effect and ±100 for the full control effect
SETTINGS: AlphaScreen GST-Six1/His-Eya2 binding, biochemical
Method: Its expression is low or undetectable in normal adult breast tissue but the gene is over-expressed in 50% of primary breast tumors and 90% of metastatic lesions. […] The first step of the 5 uL AlphaScreen assay is to dispense assay buffer (50 mM Tris, pH 8.0, 300 mM NaCl, 0.05% BSA, 0.02% Tween 20, 1 mM TCEP) into a Greiner 1536 white solid bottom microtiter plate (789175-F). […] The plate is read using a Perkin Elmer Envision using an AlphaScreen protocol.
Among all 360,000 compounds or so, about 2,000 (0.56%) were called active. Another 2% or so got no clear call; they are omitted. No stated cut-off is given here; in the data, active means activity change below about -65%; inconclusive means mostly about -30% to -63%; inactive means weaker than that. For the sample, actives were picked, then their nearest neighbours and some compounds at random.
Outcome codes: 1 = active, -1 = inactive

1) Cc1ccc(S(=O)(=O)N2[C@@H](Cc3ccccc3)CO[C@H]2CC(=O)OCc2ccccc2)cc1 ... -1
2) COc1cccc(-n2c(SCC(=O)NC3CCCCC3)nc3n[nH]c(C)c3c2=N)c1 ... 1
3) O=C(NC1CCCCC1)C(c1cc2ccccc2o1)n1c(=O)c(-c2ccco2)nc2ccccc21 (stereo not given) ... -1
4) Cc1cc(OCc2ccc(C(=O)Nc3ccc(C(=O)O)cc3)o2)ccc1Cl ... -1
5) CC1(C)NC(=O)N(CC(=O)Nc2ccc(-c3ccccc3)cc2)C1=O ... -1

---

SYSTEM_NAME: Homeobox protein SIX1 (Homo sapiens) + Protein phosphatase EYA2 (Homo sapiens) (UniProt Q15475+O00167)
ASSAY_DETAILS: qHTS Assay for Inhibitors of the Six1/Eya2 Interaction; also: % is scaled to controls: 0 for no effect and ±100 for the full control effect
SETTINGS: AlphaScreen GST-Six1/His-Eya2 binding, biochemical
About 2,000 (0.56%) of roughly 360,000 compounds were called active. Another 2% or so got no clear call; they are omitted. Cut-off read from the data, not from the text of the source: active = activity change below about -65%; inconclusive = mostly about -30% to -63%; inactive = weaker than that. This excerpt belongs to a sample that is enriched for actives.
Outcome codes: Yes for active, No for inactive

1) COc1cc(C(=O)Nc2ncccc2C)ccc1OCC(=O)N1CCOCC1 ... No
2) Cc1c(Cl)c([N+](=O)[O-])nn1CCCC(=O)NC(C)c1ccccc1 (stereo not given) ... No
3) Cc1nnc(N/N=C/c2ccccn2)[nH]c1=O ... Yes
4) Cn1c(CC(=O)Nc2ccccc2)nnc1SCC(=O)c1ccccc1 ... No
5) Cc1ccc(S(=O)(=O)N2CCC(N3CCCCCC3)CC2)cc1 ... No
6) CCCCCc1c(Cc2ccccc2)ncn1CCc1ccccc1OC ... No
7) Cn1c(CNc2nc(-c3ccccc3)cs2)nnc1SCC(=O)c1ccccc1 ... Yes
8) COc1ccc(NC(=O)CCC(=O)Nc2cc(OC)c(NC(=O)c3ccco3)cc2OC)c(OC)c1 ... Yes
9) NCCCCCC(=O)N/N=C/c1ccc2nccnc2c1 ... No
10) O=C(Oc1ccc(F)cc1)N1CCOCC1 ... No
11) Cc1nc2ccccc2nc1N/N=C/c1ccc(O)cc1O ... Yes
12) CCN1CCN(C(c2cccnc2)c2cc(Cl)c3cccnc3c2O)CC1 (stereo not given) ... Yes
13) CCOc1ccc(NC(=S)N2CCCCCC2)cc1 ... No
14) COc1ccc(/C=N/Nc2ncnc3sc4c(c23)CCCC4)cc1O ... Yes
15) COc1ccc2c(c1)N(C)/C(=C1/SC(=S)N(NC(C)=O)C1=O)S2 ... No
16) O=C1NC[C@H](CCCCN2CCN(CCc3ccccc3)C(=O)C2=O)N(CC2CCCCC2)C1=O ... No
17) Cc1cccc(N(C(=O)c2ccc(CN3CCOCC3)o2)C(C(=O)NC2CCCCC2)c2ccc(F)cc2)c1 (stereo not given) ... No
18) CCOc1ccc(-n2c(O)c(/C=N/Nc3nnc(C)c(=O)[nH]3)c3ccccc3c2=O)cc1 ... Yes
19) C/C(=N/NC(=O)CCc1ccccc1)c1ccco1 ... No
20) Oc1ccc(/C=N/Nc2nc(-c3ccccc3F)nc3ccccc23)c(O)c1 ... Yes
21) O=C(COc1cc(Cl)c(Cl)cc1Cl)NCCc1ccccn1 ... No
22) Nc1nnnn1/N=C/c1cccc(Br)c1 ... No
23) CC1CN(C(=O)c2cccc(NS(=O)(=O)c3ccc(Br)cc3)c2)CC(C)O1 (stereo not given) ... No
24) O=C(Cc1ccc(Cl)cc1)c1ccccc1 ... No
25) Cc1cccn2c(=O)c3cc(C(=O)NCCN4CCOCC4)c(=N)n(Cc4cccnc4)c3nc12 ... No
26) Nc1nnnn1/N=C/c1cccs1 ... No
27) Cc1ccc(S(=O)(=O)c2cc3c(=O)n4cccc(C)c4nc3n(CCc3ccccc3)c2=N)cc1C ... No
28) CCOC(=O)N1CCN(C(c2ccnc3ccccc23)c2nnnn2-c2c(C)cccc2C)CC1 (stereo not given) ... No
29) CCOC(=O)N1CCN(C(c2cccnc2)c2ccc3cccnc3c2O)CC1 (stereo not given) ... Yes
30) Cn1c(SCC(=O)c2ccc(F)cc2)nnc1-c1ccccn1 ... No
31) COc1cccc(-c2ccc3c(c2)S(=O)(=O)c2cccc(C(=O)O)c2C3=O)c1OC ... No
32) COc1ccc(-n2c(O)c(C=NCC(c3ccco3)N3CCCC3)c3ccccc3c2=O)cc1OC (stereo not given) ... No
33) CCNC(=S)N1CCN(c2ncccn2)CC1 ... No
34) CCOC(=O)[C@]12CCC=C1N(Cc1ccco1)C(=O)[C@H](CC(=O)N1CCSCC1)C2 ... No
35) COc1ccc(CC(=O)Nc2ccccc2NC(=O)c2ccco2)cc1OC ... No
36) O=C(CCCO)N/N=C/c1cc(Br)ccc1O ... Yes
37) Oc1ccc2ccccc2c1N=Nc1nccs1 ... Yes
38) Brc1ccccc1/C=N/Nc1nc2ccccc2o1 ... No
39) Cc1ccc(C(=O)Nc2c(-c3ccccc3)[nH][nH]c2=O)cc1 ... No
40) Cc1c(NC(=O)CSc2cccc3cccnc23)c(=O)n(-c2ccccc2)n1C ... Yes
41) COc1ccc(CCn2c(=N)c(C(=O)NCc3ccco3)cc3c(=O)n4cccc(C)c4nc32)cc1 ... Yes
42) Cc1cc(=O)[nH]c(N/N=C/c2c(C)nn(-c3ccccc3Cl)c2Cl)n1 ... No
43) C/C(=N\NC(=O)c1ccccc1F)c1ccccn1 ... Yes
44) COc1ccc2c(c1)c(=Cc1ccc(N(C)C)cc1)c1cc(-c3ccccc3)[n+](C)n12 ... Yes
45) NC(=S)NN=Cc1ccc(OC(=O)COc2cc(Cl)c(Cl)cc2Cl)cn1 ... Yes
